These data points were gathered from patent US11845744B2.

The reader will find reported efflux ratio at 120 min, 5 μM values listed item by item below.
# Tested on: MDR1
# Measurement protocol: MDCK-MDR1 permeability assay for blood-brain-barrier penetration potential (Papp, efflux ratio)
# Assay type: in vitro ADME
# Test conditions: dog, MDCK-MDR1, pH 7.4, Efflux ratio = Papp (B-to-A)/Papp (A-to-B)
Provide a numeric answer; units are not to be included.

Some entries whose results are on file:
{"columns": ["Compound", "efflux ratio at 120 min, 5 μM"],
 "data": [
  ["CN(c1cnc(-c2ccc(-c3ccn(C)c(=O)c3)cc2O)nn1)[C@@H]1C[C@H]2CC[C@H](N2)[C@@H]1F (single isomer, unassigned)", 309],
  ["CN(c1cnc(-c2ccc(-c3cnn(C)c3)cc2O)nn1)[C@H]1C[C@@H]2CC[C@@H](N2)[C@H]1F (single isomer, unassigned)", 9]
]}

Then there is this compound:
Please look up its efflux ratio at 120 min, 5 μM: CN(c1cnc(-c2ccc(-c3cn[nH]c3)cc2O)nn1)[C@@H]1C[C@H]2CC[C@H](N2)[C@@H]1F (single isomer, unassigned)
19

====

This listing pairs compounds with measured Papp B→A at 120 min, 5 μM.
# System: MDR1
# Measurement protocol: MDCK-MDR1 permeability assay for blood-brain-barrier penetration potential (Papp, efflux ratio)
# Type: in vitro ADME
# Test conditions: dog, MDCK-MDR1, basolateral to apical, 120 minutes, pH 7.4
The reply should be a number in ×10⁻⁶ cm/s, with the unit left off.

{"columns": ["Compound", "Meas value"],
 "data": [
  ["CN(c1cnc(-c2ccc(-c3cnn(C)c3)cc2O)nn1)[C@@H]1C[C@H]2CC[C@H](N2)[C@@H]1F (single isomer, unassigned)", 37.3],
  ["Cn1cc(-c2ccc(-c3ncc(O[C@H]4C[C@@H]5CCC[C@@H](N5)[C@H]4F)nn3)c(O)c2)cn1 (single isomer, unassigned)", 43.7],
  ["CN(c1cnc(-c2ccc(-c3ccn(C)c(=O)c3)cc2O)nn1)[C@@H]1C[C@H]2CC[C@H](N2)[C@@H]1F (single isomer, unassigned)", 37.8],
  ["CN(c1cnc(-c2ccc(-c3ccn(C)c(=O)c3)cc2O)nn1)[C@H]1C[C@@H]2CC[C@@H](N2)[C@H]1F (single isomer, unassigned)", 46.4],
  ["CN(C)C(=O)c1cc2cc(O)c(-c3ncc(N(C)[C@H]4C[C@@H]5CC[C@@H](N5)[C@H]4F)nn3)cc2o1 (single isomer, unassigned)", 50],
  ["CN(c1cnc(-c2ccc(-c3cn[nH]c3)cc2O)nn1)[C@H]1C[C@@H]2CC[C@@H](N2)[C@H]1F (single isomer, unassigned)", 53.4],
  ["CN(c1cnc(-c2ccc(-c3cn[nH]c3)cc2O)nn1)[C@@H]1C[C@H]2CC[C@H](N2)[C@@H]1F (single isomer, unassigned)", 39.8],
  ["Cn1cc(-c2ccc(-c3ncc(O[C@@H]4C[C@H]5CCC[C@H](N5)[C@@H]4F)nn3)c(O)c2)cn1 (single isomer, unassigned)", 30.9]
]}

Proceed to the following item.
// lookup Papp B→A at 120 min, 5 μM for CN(c1cnc(-c2ccc(-c3cnn(C)c3)cc2O)nn1)[C@H]1C[C@@H]2CC[C@@H](N2)[C@H]1F (single isomer, unassigned)
37.8

====

# Tested on: MDR1
# Measurement protocol: MDCK-MDR1 permeability assay for blood-brain-barrier penetration potential (Papp, efflux ratio)
# Type: in vitro ADME
# Test conditions: dog, MDCK-MDR1, apical to basolateral, 120 minutes, pH 7.4
Entries and their Papp A→B at 120 min, 5 μM
Field format: number, assumed nm/s, no unit text.

Worked cases, answers included:
{"columns": ["Molecule", "Papp A→B at 120 min, 5 μM [nm/s]"],
 "data": [
  ["Cn1cc(-c2ccc(-c3ncc(O[C@H]4C[C@@H]5CCC[C@@H](N5)[C@H]4F)nn3)c(O)c2)cn1 (single isomer, unassigned)", 102],
  ["CN(c1cnc(-c2ccc(-c3ccn(C)c(=O)c3)cc2O)nn1)[C@@H]1C[C@H]2CC[C@H](N2)[C@@H]1F (single isomer, unassigned)", 1.2],
  ["CN(c1cnc(-c2ccc(-c3cnn(C)c3)cc2O)nn1)[C@@H]1C[C@H]2CC[C@H](N2)[C@@H]1F (single isomer, unassigned)", 53.7],
  ["CN(c1cnc(-c2ccc(-c3ccn(C)c(=O)c3)cc2O)nn1)[C@H]1C[C@@H]2CC[C@@H](N2)[C@H]1F (single isomer, unassigned)", 3],
  ["CN(C)C(=O)c1cc2cc(O)c(-c3ncc(N(C)[C@H]4C[C@@H]5CC[C@@H](N5)[C@H]4F)nn3)cc2o1 (single isomer, unassigned)", 30.5]
]}

Which Papp A→B at 120 min, 5 μM is listed for Cn1cc(-c2ccc(-c3ncc(O[C@@H]4C[C@H]5CCC[C@H](N5)[C@@H]4F)nn3)c(O)c2)cn1 (single isomer, unassigned) ?
90

Again, but for CN(c1cnc(-c2ccc(-c3cn[nH]c3)cc2O)nn1)[C@@H]1C[C@H]2CC[C@H](N2)[C@@H]1F (single isomer, unassigned)
20.5

Same lookup for CN(c1cnc(-c2ccc(-c3cn[nH]c3)cc2O)nn1)[C@H]1C[C@@H]2CC[C@@H](N2)[C@H]1F (single isomer, unassigned) , please.
22.6

Ok, now CN(c1cnc(-c2ccc(-c3cnn(C)c3)cc2O)nn1)[C@H]1C[C@@H]2CC[C@@H](N2)[C@H]1F (single isomer, unassigned)
43
